# measurement.target: Hsp90 in C. albicans (SC5314) lysate (Candida albicans, UniProt P46598)
# Construct: endogenous in cells; host or cells: C. albicans SC5314 whole-cell lysate
# Sequence (P46598 whole entry): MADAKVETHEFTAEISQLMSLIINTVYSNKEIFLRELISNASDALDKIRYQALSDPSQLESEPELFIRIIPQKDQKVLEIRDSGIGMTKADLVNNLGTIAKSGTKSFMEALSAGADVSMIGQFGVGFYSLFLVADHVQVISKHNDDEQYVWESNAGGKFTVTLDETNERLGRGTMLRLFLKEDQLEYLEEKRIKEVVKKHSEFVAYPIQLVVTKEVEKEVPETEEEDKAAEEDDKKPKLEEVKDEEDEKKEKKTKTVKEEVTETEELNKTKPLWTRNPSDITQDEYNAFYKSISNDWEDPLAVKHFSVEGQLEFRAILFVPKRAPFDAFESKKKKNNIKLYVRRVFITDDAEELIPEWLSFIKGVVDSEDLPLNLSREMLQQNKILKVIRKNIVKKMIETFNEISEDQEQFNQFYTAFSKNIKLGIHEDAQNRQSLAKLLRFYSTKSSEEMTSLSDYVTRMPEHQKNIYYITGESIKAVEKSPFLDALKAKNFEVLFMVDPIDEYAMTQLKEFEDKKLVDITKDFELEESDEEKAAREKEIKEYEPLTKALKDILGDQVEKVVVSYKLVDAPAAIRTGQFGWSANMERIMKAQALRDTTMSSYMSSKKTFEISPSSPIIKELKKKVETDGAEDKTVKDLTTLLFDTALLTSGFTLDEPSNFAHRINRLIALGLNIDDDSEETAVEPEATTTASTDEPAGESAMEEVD
# assay.name: biochemical
# Format: binding
# assay.context: EC50 relative to GdA, SC5314 lysate
property: Ratio re. GdA

For orientation, consider the following solved cases.
C[C@@H]1C[C@@H]2O[C@@H]2/C=C\C=C\C(=NOCc2ccccc2Cl)Cc2c(Cl)c(O)cc(O)c2C(=O)O1 [compound 4]	31.1993
CC1CC2OC2C=CC=CC(=NOCc2ccccc2)Cc2c(Cl)c(O)cc(O)c2C(=O)O1 (mixture of isomers) [compound 217]	23.0159
CC1CC2OC2C=CC=CC(=NOCCN2CCCC2=O)Cc2c(Cl)c(O)cc(O)c2C(=O)O1 (stereo not drawn) [KF58333, reference compound]	0.4034
CC1CC2OC2C=CC=CC(=NOCc2cccc(F)c2)Cc2c(Cl)c(O)cc(O)c2C(=O)O1 (mixture of isomers) [compound 227]	21.164
Cc1ccc(CON=C2C=CC=CC3OC3CC(C)OC(=O)c3c(O)cc(O)c(Cl)c3C2)cc1 (mixture of isomers) [compound 218]	57.1252
COc1ccc(CON=C2C=CC=CC3OC3CC(C)OC(=O)c3c(O)cc(O)c(Cl)c3C2)cc1 (mixture of isomers) [compound 224]	79.2475
COc1ccc(CON=C2C=CC=CC3OC3CC(C)OC(=O)c3c(O)cc(O)cc3C2)cc1 (stereo not drawn) [CMLD013075]	29.6649
COc1ccccc1CON=C1C=CC=CC2OC2CC(C)OC(=O)c2c(O)cc(O)c(Cl)c2C1 (mixture of isomers) [compound 226]	24.5326

Quick one: Ratio re. GdA of CCON=C1/C=C/C=C\[C@H]2O[C@H]2C[C@@H](C)OC(=O)c2c(O)cc(O)c(Cl)c2C1 [compound 333] ? 0.3152
